- Tested on: Mycobacterium tuberculosis
- Assay details: In vitro antimycobacterial activity against Mycobacterium tuberculosis H37Rv in broth cluture infected with macrophages
- Format: functional
Metric: MIC (µg/mL)
Give your result in µg/mL as a bare value.

{"columns": ["Molecule", "Unit name", "MIC"],
 "data": [
  ["C/C=N/NC(=O)c1ccncc1", "µg/mL", 0.025],
  ["C/C(=N\\NC(=O)c1ccncc1)c1ccc(F)cc1", "µg/mL", 1.6],
  ["N#CC[n+]1ccc(C(=O)NNCc2ccccc2)cc1", "µg/mL", 0.8]
]}

The record that follows has no MIC shown yet.
Prompt: Recall and state the measured MIC for O=C(N/N=C/c1ccc(C(F)(F)F)cc1)c1ccncc1 .
Response: 0.05
